Value source: patent US20160009772A1

Target: T1, IRF5(222-467, S430D), S430D phosphomimetic construct of IRF5 (222-467) (human, UniProt Q13568-4 222-467)
T1 construct: range 222-467; Used in the dimer assay in two tagged forms at once (biotin tag and His tag); S and R stand 10 residues further (S440, R363), so the construct is probably numbered on an isoform 10 residues shorter; also called mutant S430D (222-467); biotin tag IRF5(222-467, S430D)
T1 sequence (Q13568 232-477 S440D limits assumed): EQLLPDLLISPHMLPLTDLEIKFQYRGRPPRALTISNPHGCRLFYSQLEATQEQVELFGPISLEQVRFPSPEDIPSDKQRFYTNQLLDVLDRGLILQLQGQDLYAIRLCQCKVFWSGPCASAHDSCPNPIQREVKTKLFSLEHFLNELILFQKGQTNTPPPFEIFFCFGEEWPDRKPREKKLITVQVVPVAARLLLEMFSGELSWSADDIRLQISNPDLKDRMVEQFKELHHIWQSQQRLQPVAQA
Assay: TR-FRET IRF5 dimerization inhibition, S430D (222-467), peptide titrated
pIC50: −log10 of the molar value.
observed.property: pIC50

For the binder Ac-YLKFIPLKRAIWLIK-NH2 [Ac-YLKFIPLKRAIWLIK-NH2 (SEQ ID NO: 23), control CPP designed not to bind IRF5] , what pIC50 is on record?
< 4.12
